SYSTEM TESTED: ERRγ (Homo sapiens, UniProt P62508)
Sequence (P62508 233-458 limits assumed): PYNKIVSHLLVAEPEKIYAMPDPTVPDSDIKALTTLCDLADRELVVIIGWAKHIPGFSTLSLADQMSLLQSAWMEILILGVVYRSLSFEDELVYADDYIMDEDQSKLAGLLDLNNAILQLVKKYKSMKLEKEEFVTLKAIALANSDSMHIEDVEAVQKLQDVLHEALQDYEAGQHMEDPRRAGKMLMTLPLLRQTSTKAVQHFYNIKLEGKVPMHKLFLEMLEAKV
METHOD: ERRγ functional assay: GAL4-ERRγ luciferase reporter gene in AD293 cells
Assay type: cell-based
CONDITION LABEL: AD293, 24 h; screening concentration of 10 μM; read-out: transcriptional repression
MEASURED PROPERTY: inhibition at 10 µM

| MOLECULE | MEAS VALUE |
| --- | --- |
| COCCC/C(=C(\c1ccc(O)cc1)c1ccc(OCCN(C)C)cc1)c1cnn(C)c1 [Compound 13c] | ~50% |
| COCCC/C(=C(\c1ccc(O)cc1)c1ccc(OCCN(C)C)c(C(F)(F)F)c1)c1cccnc1 | ~0% |
| CN(C)CCOc1ccc(/C(=C/CCCO)c2ccc(O)cc2)cc1 [Compound 15a] | ~0% |
| CN(C)CCOc1ccc(/C(=C(/CCCO)c2ccc3cnn(C)c3c2)c2ccc(O)cc2)cc1 [Compound 15g] | 95% |
| COc1ccc(/C(CCCO)=C(/c2ccc(O)cc2)c2ccc(OCCN(C)C)cc2)cn1 [Compound 15c] | ~50% |
| COCCC/C(=C(\c1ccc(O)cc1)c1ccc(OCCN(C)C)cc1)c1ccncc1 [Compound 13b] | ~50% |
| COCCC/C(=C(\c1ccc(O)cc1)c1ccc(OCCN(C)C)cc1)c1ccc(C(C)C)nc1 | ~50% |
| CN(C)CCOc1ccc(/C(=C(/CCCO)c2ccc3nccn3c2)c2ccc(O)cc2)cc1 [Compound 15i] | ~0% |
